Hey, just so you know, these numbers are from paper PMC12794078.

# ASSAY SYSTEM: CA IX on live Ramos B cells (Homo sapiens, UniProt Q16790)
# PROCEDURE SUMMARY: SPRM kinetic titration of small molecules on live Ramos B suspension cells (1:1 kinetic model, 600 ROIs)
# ASSAY CONDITIONS: KD, SPRM results for CA IX, membrane-bound CA IX, live Ramos B cells, Gaussian mean over ROIs
READOUT LABEL: Kd

>>> endpoint_value("CN(C)c1cccc2c(S(N)(=O)=O)cccc12 [Dansylamide]")
"586 nM"

###

# ASSAY SYSTEM: CA IX on live Ramos B cells (Homo sapiens)
# PROCEDURE SUMMARY: SPRM kinetic titration of small molecules on live Ramos B suspension cells (1:1 kinetic model, 600 ROIs)
# ASSAY CONDITIONS: KD, Batch 1
READOUT LABEL: Kd (nM)

>>> endpoint_value("NS(=O)(=O)c1ccc(C(=O)O)cc1 [4-CBS, 4-Carboxybenzenesulfonamide]")
870
